B1: glmS ribozyme (parent)
chain: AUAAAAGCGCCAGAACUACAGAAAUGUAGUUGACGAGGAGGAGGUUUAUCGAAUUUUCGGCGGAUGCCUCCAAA

# Variants of: B1
# assay_notes: kcat; higher = faster cleavage; RNA array
# applied_conditions: with glucosamine-6-phosphate
Fewer inactive variants are shown than the library holds.
# key: entry, value: kcat
Answer in s⁻¹, number only, no unit symbol.

>>> measured_result("A12U U31G")
0.0183

input: Data request, read-out kcat, for A48U A53U
output: 0.000308

input: Data request, read-out kcat, for G13A U31A G32A C50G C67G
output: 4.8e-05

input: Data request, read-out kcat, for G38A A52C C70A
output: 1.15e-05

input: Data request, read-out kcat, for G13U G32A
output: 0.00326

input: Data request, read-out kcat, for C11G A15G
output: 1.01e-05

input: Data request, read-out kcat, for G44A U65A
output: 0.000154

input: Data request, read-out kcat, for G7A U47G C61U
output: 1.24e-05

input: Data request, read-out kcat, for G32C C58A
output: 0.000602

Source of measurements: the supplement of paper PMC7125110
